Listed here: items and their measured apparent KD of MS2 coat protein.
# Test system: MS2 coat protein
# assay-details: apparent KD of MS2 coat protein, switch OFF state (with FMN for OFF switches, without FMN for ON switches); designed switch direction (-1 OFF switch, 1 ON switch): -1; higher = weaker reporter binding
# test-conditions: FMN input: 0 or 200 uM; Eterna round: R93 (includes R88 designs)
parameter: apparent KD of MS2 coat protein (µM)

AGCAAGUCAGGAUAUACGAACAAGACAAAAGACGUGAAGGGACAUGAGGAUCACCCAUGUAGAAGGGACAAGCA [74%, Web mod - With 4 less U's]
0.0558
CACGGGUUAGGAUAUGCAUGGUGAAAAGACGCGAUCCUUAGACAUGAGGAUCACCCAUGUAGAAGGAACGCGAU [Reonisar]
0.015
GGUUGGGUAGGAUAUACAUGAGGAUCACCCAUGUGAGAGAAAAAAGUGAGAAAGAAAAGUAGAAGGGCUUGACG [salish99-ex3-67]
0.0587
CUCAAGUAAGGAUAUCCAAGAAAAGAAGAGAAAGAAAAGAAGGAGAAGGUACAUGAGGAUCACCCAUGUAAGAA [EteRNA is fun!]
0.0237
AAAAAGCGAGGAUAUACAUGAGGAUCACCCAUGUAAAAGGUCGCGGGAGGGAGGGAAGGUAGAAGGCGCAAAAA [Excls3-VI]
0.0141
AAGAAUGGAGGAUAUACAAGAAAGAAAGAAAAGAAAAGAAAACAUGAGGAUCACCCAUGUAGAAGGCCAUAGAA [EteRNA is fun!]
0.0138
AACAUACAUGAGGAUCACCCAUGUCAGGAUAUGCCGGGUUAGAACCAACUAAAAAAACGUAGAAGGGACAAAAA [Bilbo Confounded 5 - Jieux - Exclusion 1]
0.0467
CAAGGUGGAGGAUAUACAUGAGGAUCACCCAUGUAAGGACAAUAAAUAAGAUGAAGAAGUAGAAGGCCACUCAA [e3-3]
0.0421
AAAAAGGCAGGAUAUACGAGUCAAAGAAAAGACAAAAGGAAACAUGAGGAUCACCCAUGUAGAAGGGCCAAAAA [Fiskers exclusion D2 62% 6]
0.0167
GAAGAACAUGAGGAUCACCCAUGUCAGGAUAUGAGCAAGGGAAUAAUAACUUGCGGAAUCAGAAGGGACAAGAA [Ex 1 May 51]
0.0436
AUCUUGUCAGGAUAUGACUACAUAAAAAAAAAAAAAUGUAGUCAGAAGGGACAUGAGGAUCACCCAUGUACCAA [HSL_Exclusion 4 64% 2]
0.0241
AACAAAUGAGGAUAUACAAACAAAAAAAACAAACAAAACAAACAUGAGGAUCACCCAUGUAGAAGGCAUAAACA [JR_Exc002_Sub901]
0.0245
AGCUAGAGAGGAUAUACAUAAAAAAAAAAAGUCUGAUCCCUACAUGAGGAUCACCCAUGUAGAAGGCUCUGGCA [Ex2 Design 157: Sub-opt 21]
0.0385
AGAAAGCGAGGAUAUACUAAGAAACCUCAAAGAAAGAAGAAACAUGAGGAUCACCCAUGUAGAAGGCGCAAAGA [JR_Exc002_Sub002]
0.0708
AAAAAACAUGAGGAUCACCCAUGUGAGGAUAUGUGAAAAAAAAAAUAAAAAAAAAAAAGCAGAAGGUACAAAAA [LROPPY Exclusion 1 - v03_deltaG=3.94]
0.0399
AGGGAGUCAGGAUAUCGGAAAAAAAAACAACGAAAAAAAGACGAGAAGGGACAUGAGGAUCACCCAUGUAAGAA [milkweed 16]
0.0235
AGAAAACAUGAGGAUCACCCAUGUCAGGAUAUGAAAAAGAAAAGAAAAGAAAGAAGAAUCAGAAGGGACAAGAA [Senedj]
0.0403
GCUGGGCAAGGAUAUACAUGAGGAUCACCCAUGUGAGAGAAAAAAGUGAGAAAGAAAAGUAGAAGGUGCUUAGG [salish99-ex3-119]
0.0779
AAAAAGUCAGGAUAUACAGAUAAAAAAACGAAAAAAAAUCUGUAGAAGGGACAUGAGGAUCACCCAUGUAAAAA [Ex 4 May 1]
0.0401
AAAAAGUGAGGAUAUACAUGAGGAUCACCCAUGUGAAAGUCGAAAAAAAAGACAAGAAGUAGAAGGCACAAAAA [Fiskers Exclusion 3 D2 variant]
0.0293
AAGAAACAUGAGGAUCACCCAUGUGAGGAUAUUCAAGAAAGAAAGAAAGAAAGAAGAAGAAGAAGGCACAAAGG [Lucius Seius Strabo]
0.032
AACAGUACAGGAUAUACAUGAGGAUCACCCAUGUAAAGGGAAUAAAACUAAAAUAAAAGUAGAAGGGUACUGGA [Moding Maslow revisited (73) 20]
0.0926
AGGAAACAUGAGGAUCACCCAUGUGAGGAUAUGAGAAAGAAAAGAAAAGAAAGAAGAAUCAGAAGGCACAAGAA [Raneb]
0.0466
AGUCAGAGAGGAUAUACAUAGGAAAAAAAAGUAAGAUCCCUACAUGAGGAUCACCCAUGUAGAAGGCUCUGACA [Ex2 Design 140: Sub-opt 4]
0.0875
AAAAGGUGAGGAUAUAUGAAAAAAAAAAAAAAAAAAAAAAAAUAGAAGGCACAUGAGGAUCACCCAUGUAAAAA [LROPPY Exclusion 4 - v04_ on a whim]
0.0272

====

# Test system: MS2 coat protein
# assay-details: apparent KD of MS2 coat protein; designed switch direction (-1 OFF switch, 1 ON switch): -1; higher = weaker reporter binding
# test-conditions: Eterna round: R95; input ligand: FMN 200 uM
Listed here: items and their measured apparent KD of MS2 coat protein.
parameter: apparent KD of MS2 coat protein (nM)

GAAUAGGCAGGAUAUACAUGAGGAUCACCCAUGUGCCGGCGAAAGGUACGUUCGAAAGGUAGAAGGGCCUAAAC [ChP 13.04.2015 #7] (puzzle: Exclusion 3)
151
GAUUAUGCGAGCUUUAGGGACAUGAGGAUCACCCAUGUUCGUCUUAUUAAUCUAGGUACACUGACAUACCUAAAUCU [JMF 64] (puzzle: Sensor v3, turn-off variant 1)
21.3
AAAACGUCAGGAUAUACGAAAUAAAAUAAAAUAAAAUAAAAGUAGAAGGGACAUGAGGAUCACCCAUGUAAUAA [Exclusion 4 #1] (puzzle: Exclusion 4)
43.7
UUGCUUUCUUAGUACUCUAUAAGUUUUUUGUUCGUUUUAACAUGAGGAUCACCCAUGUCUAGUGGAUCUGAUCGGGU [JL ViennaUCT Isreen mod 7] (puzzle: Sensor v3, turn-off variant 2)
150
UCAUGUAUGUAGGAUAUCGAUGUCUGCGGACAUCGAGAAGGACGUACAUGAGGAUCACCCAUGUAACUUGCAUG [Exclusion 6 - B - 11:e] (puzzle: Exclusion 6)
31.9
GAGGUACAUGAGGAUCACCCAUGUGAGGAUAUAGGUAGAGAUUGAGAGAGGUGGAGGACUAGAAGGCACAGUGG [JR_Exclu1_Sub040] (puzzle: Exclusion 1)
59.6
CAGCCUCAGGUUAGGAUAUACGCGUGGCCGAAGGAGUAGAAGGGACAUGAGGAUCACCCAUGUGGGUUCAAAUG [Onsoisgeso] (puzzle: Brourd's mod of Exclusion 4)
292
AAGUACCGUCACGAUAGUGAUGGUACAACAAGCAAAUAUACAUGAGGAUCACCCAUGUCCUCUUUUGCUCGUCUUGU [Sensor 3] (puzzle: Sensor v3, turn-off variant 2)
798
CGGUGCUGAGGAUAUACAUGAGGAUCACCCAUGUGUUCCAGCUAGGUGACUGGCAAAUGUAGAAGGCGGUACUG [JL-ex3-3.36 Brourd mod] (puzzle: Exclusion 3)
40.7
GUAAAGGUAGGAUAUACGAAGAAAAAGGGUAGAAGAAGAACACAUGAGGAUCACCCAUGUAGAAGGACCAAAUG [Mat - Exclusion 2 - Mod of my Tesla design - D4] (puzzle: Exclusion 2)
63.9
AAUAGCAAGCAGAUCCUAAACAUGAGGAUCACCCAUGUGCUCGUCUUGUAAAGUACUAUCACGAAAGUGAUAGUACA [Sensor 3, v1 - 61] (puzzle: Sensor v3, turn-off variant 1)
118

====

# Test system: MS2 coat protein
# assay-details: apparent KD of MS2 coat protein; designed switch direction (-1 OFF switch, 1 ON switch): 1; higher = weaker reporter binding
# test-conditions: input ligand: microRNA oligo, concentration not stated
Answer F if apparent KD of MS2 coat protein is under 0.09 µM, and T if it is 0.09 µM or more.

GUAGCAGGCACAGGAUAUGUUGACCAGGGAGUACAUGAGGAUCACCCAUGUCCGACACACCGGCAAUAGAAGGGUGAGUGGCAG [Eternabot solution 17] (Eterna round: R96, puzzle: Same State NG 2)
F
AUUUUUAAUGCAGGAUAUGAUUAACAUGAGGAUCACCCAUGUGGUGUUGUGAGUAAGGAGAGUGAUCAGAAGGGCAUUUUUGUU [JMF's solution 85] (Eterna round: R96, puzzle: Same State NG 2)
T
GCGAAAGCGGUAGGAUAUCUAGGAUAUGGGAAGACCUAAGGUUGGAAGUCACUUCACCCAGAAGGAGAGAAGGACACCGAAAGG [pwkr ssNG2 2FMN + F9.2] (Eterna round: R96, puzzle: Same State NG 2)
T
GGGAGACAUGAGGAUCACCCAUGUGAGAAGAGGCGAGGAUAUCGAAAAAAAAAAAAAAAACGAGAAGGCGCGAGAU [salish99-SS1-004] (Eterna round: R96, puzzle: Same State 1)
T
